- Target desc: muscarinic cholinergic receptor
- Test: [3H] Quinuclinyl Benzilate (3H-QNB) Binding Assay
- Set-up: species or system rat
- Experimental context: rat cerebral cortex, 0.25 nM 3H-QNB, 25° C., 120 minutes, pH 7.4
Parameter measured: IC50 (µM)
Reply with just the number (in µM).

*Q* Give recorded IC50 with muscarinic cholinergic receptor for the following molecule: CN(C)CC#Cc1cscn1 [--N, --N-Dimethyl-3-(4-thiazoyl)-2-propyn-1-amine]
*A* 381

*Q* Give recorded IC50 with muscarinic cholinergic receptor for the following molecule: Cl/C(=C/c1nccs1)CN1CCCC1
*A* 186

*Q* Give recorded IC50 with muscarinic cholinergic receptor for the following molecule: C(#Cc1cncs1)CN1CCCC1 [5-[3-(1-Pyrrolidinyl)-1-propynyl]thiazole]
*A* 73

*Q* Give recorded IC50 with muscarinic cholinergic receptor for the following molecule: CN(C)CC#Cc1cscn1 [--N, --N-Dimethyl-3-(4-thiazolyl)-2-propyn-1-amine]
*A* 504

*Q* Give recorded IC50 with muscarinic cholinergic receptor for the following molecule: C(#Cc1cscn1)CN1CCCC1
*A* 71

*Q* Give recorded IC50 with muscarinic cholinergic receptor for the following molecule: C(#Cc1cncs1)CN1CCCC1 [5-[3-(1-Pyrrolidinyl)-1-propynyl] thiazole]
*A* 115

*Q* Give recorded IC50 with muscarinic cholinergic receptor for the following molecule: CN(C)CC#Cc1nccs1
*A* 1310

*Q* Give recorded IC50 with muscarinic cholinergic receptor for the following molecule: CN(C)C/C(Cl)=C\c1nccs1
*A* 222

*Q* Give recorded IC50 with muscarinic cholinergic receptor for the following molecule: Br/C(=C/c1nccs1)CN1CCCC1
*A* 90

*Q* Give recorded IC50 with muscarinic cholinergic receptor for the following molecule: C(#Cc1nccs1)CN1CCCC1
*A* 44
